Exercise: state measured PBM 8-mer E-score for each of the sequences provided.
Tested on: 2Sp-muMax20 (muMax20 with two 2,6-bis(methyl)pyridine Cys staples)
Assay: PBM 8-mer E-score (E-score (rank enrichment, -0.5 to 0.5)); higher = stronger preferential binding
Whole data set: some 33,000 sequences, median “E-score (rank enrichment, -0.5 to 0.5)” near -0.0043, cut for the highest 2% near 0.24. Shown is part of a subset that was picked to be rich in the highest values.
Would you mind answering with just the numeric figure?

Query block: For the sequence GAAGGAGA , report PBM 8-mer E-score.
Result block: 0.246

Query block: For the sequence ACATTATA , report PBM 8-mer E-score.
Result block: 0.282

Query block: For the sequence GAGCCAGA , report PBM 8-mer E-score.
Result block: -0.216

Query block: For the sequence CATAATGG , report PBM 8-mer E-score.
Result block: 0.153

Query block: For the sequence CAACGCCG , report PBM 8-mer E-score.
Result block: -0.168

Query block: For the sequence ATGCGTAC , report PBM 8-mer E-score.
Result block: 0.00487

Query block: For the sequence AATAATAC , report PBM 8-mer E-score.
Result block: -0.0356

Query block: For the sequence GGCACTGA , report PBM 8-mer E-score.
Result block: -0.138

Query block: For the sequence AAAATAAC , report PBM 8-mer E-score.
Result block: 0.2

Query block: For the sequence CTAATTAG , report PBM 8-mer E-score.
Result block: -0.0106

Query block: For the sequence ACTATATA , report PBM 8-mer E-score.
Result block: 0.254

Query block: For the sequence ATAGCTAC , report PBM 8-mer E-score.
Result block: 0.204

Query block: For the sequence CTGCGTAA , report PBM 8-mer E-score.
Result block: -0.0976

Query block: For the sequence TTAACTAA , report PBM 8-mer E-score.
Result block: 0.248

Query block: For the sequence ATAATTAG , report PBM 8-mer E-score.
Result block: 0.289

Query block: For the sequence CTGGGTGA , report PBM 8-mer E-score.
Result block: -0.0861

Query block: For the sequence CGAGGCTC , report PBM 8-mer E-score.
Result block: -0.224

Query block: For the sequence ATGCGTAG , report PBM 8-mer E-score.
Result block: 0.259

Query block: For the sequence ATAATTCG , report PBM 8-mer E-score.
Result block: 0.221

Query block: For the sequence ACATTATG , report PBM 8-mer E-score.
Result block: 0.147

Query block: For the sequence AAGCCATT , report PBM 8-mer E-score.
Result block: -0.0452

Query block: For the sequence CCATTATA , report PBM 8-mer E-score.
Result block: 0.257

Query block: For the sequence AGAACGGC , report PBM 8-mer E-score.
Result block: 0.0294

Query block: For the sequence ACGTGCAA , report PBM 8-mer E-score.
Result block: 0.212

Query block: For the sequence ATGCGTTA , report PBM 8-mer E-score.
Result block: 0.243

Query block: For the sequence CCCAAACC , report PBM 8-mer E-score.
Result block: 0.0283

Query block: For the sequence GCTATGCC , report PBM 8-mer E-score.
Result block: -0.00318

Query block: For the sequence ATGCGTCG , report PBM 8-mer E-score.
Result block: -0.0304

Query block: For the sequence ATTATACC , report PBM 8-mer E-score.
Result block: 0.238

Query block: For the sequence ATTATACA , report PBM 8-mer E-score.
Result block: 0.0914

Query block: For the sequence CAAAGGGG , report PBM 8-mer E-score.
Result block: 0.00961

Query block: For the sequence ACCCACGA , report PBM 8-mer E-score.
Result block: -0.0222

Query block: For the sequence CTACCCTC , report PBM 8-mer E-score.
Result block: 0.0414

Query block: For the sequence CAAGGAGA , report PBM 8-mer E-score.
Result block: -0.133

---

Exercise: state measured PBM 8-mer E-score for each of the sequences provided.
System: 2Sp-muMax20 (muMax20 with two 2,6-bis(methyl)pyridine Cys staples)
Experiment: PBM 8-mer E-score (E-score (rank enrichment, -0.5 to 0.5)); higher = stronger preferential binding
The full ranking holds about 33,000 sequences; the median of “E-score (rank enrichment, -0.5 to 0.5)” is about -0.0043, and the highest 2% start at about 0.24. Shown is part of a subset that was picked to be rich in the highest values.
Would you mind answering with just the numeric figure?

Query block: For the sequence ACCGAGCT , report PBM 8-mer E-score.
Result block: -0.158

Query block: For the sequence TACTTCAA , report PBM 8-mer E-score.
Result block: 0.243

Query block: For the sequence ACTTTATG , report PBM 8-mer E-score.
Result block: 0.281

Query block: For the sequence ATGTAAAT , report PBM 8-mer E-score.
Result block: 0.159

Query block: For the sequence ACGTTATA , report PBM 8-mer E-score.
Result block: 0.204

Query block: For the sequence GTGTAATA , report PBM 8-mer E-score.
Result block: 0.162

---

Tested on: 2Sp-muMax20 (muMax20 with two 2,6-bis(methyl)pyridine Cys staples)
Assay: PBM 8-mer E-score (E-score (rank enrichment, -0.5 to 0.5)); higher = stronger preferential binding
In all, about 33,000 sequences were measured (“E-score (rank enrichment, -0.5 to 0.5)”: median about -0.0043, highest 2% from about 0.24 on). This excerpt belongs to a sample that is enriched for the highest values.
Classify as follows. Reported PBM 8-mer E-score greater than or equal to -0.03: yes (1). Reported PBM 8-mer E-score below: no (0).

Query block: Would you say GGCCTCGA shows PBM 8-mer E-score at minimum -0.03?
Result block: no (0)

Query block: Would you say CCATGTAG shows PBM 8-mer E-score at minimum -0.03?
Result block: yes (1)

Query block: Would you say GTTACATA shows PBM 8-mer E-score at minimum -0.03?
Result block: yes (1)

Query block: Would you say AACCCACC shows PBM 8-mer E-score at minimum -0.03?
Result block: yes (1)

Query block: Would you say CCGGGCTA shows PBM 8-mer E-score at minimum -0.03?
Result block: no (0)

Query block: Would you say AGCCCACC shows PBM 8-mer E-score at minimum -0.03?
Result block: yes (1)

Query block: Would you say CATAATAA shows PBM 8-mer E-score at minimum -0.03?
Result block: yes (1)

Query block: Would you say AATGAATA shows PBM 8-mer E-score at minimum -0.03?
Result block: yes (1)

Query block: Would you say AACCCACG shows PBM 8-mer E-score at minimum -0.03?
Result block: yes (1)

Query block: Would you say GACTATGC shows PBM 8-mer E-score at minimum -0.03?
Result block: yes (1)

Query block: Would you say AGATGTAG shows PBM 8-mer E-score at minimum -0.03?
Result block: yes (1)

Query block: Would you say CACCCACC shows PBM 8-mer E-score at minimum -0.03?
Result block: yes (1)

Query block: Would you say CTCCTCTA shows PBM 8-mer E-score at minimum -0.03?
Result block: no (0)

Query block: Would you say ATAGCATC shows PBM 8-mer E-score at minimum -0.03?
Result block: yes (1)

Query block: Would you say ACACCAGA shows PBM 8-mer E-score at minimum -0.03?
Result block: no (0)

Query block: Would you say CGGGTACC shows PBM 8-mer E-score at minimum -0.03?
Result block: no (0)

Query block: Would you say TCCTTTAA shows PBM 8-mer E-score at minimum -0.03?
Result block: yes (1)

Query block: Would you say TACAAAAA shows PBM 8-mer E-score at minimum -0.03?
Result block: yes (1)

Query block: Would you say CTCCATCA shows PBM 8-mer E-score at minimum -0.03?
Result block: yes (1)

Query block: Would you say CGTAGTTC shows PBM 8-mer E-score at minimum -0.03?
Result block: no (0)

Query block: Would you say ACAGTATC shows PBM 8-mer E-score at minimum -0.03?
Result block: yes (1)

Query block: Would you say AGGCTCAC shows PBM 8-mer E-score at minimum -0.03?
Result block: no (0)

Query block: Would you say ACCATGCA shows PBM 8-mer E-score at minimum -0.03?
Result block: yes (1)

Query block: Would you say ACATGTAG shows PBM 8-mer E-score at minimum -0.03?
Result block: yes (1)

Query block: Would you say AGCGCCAC shows PBM 8-mer E-score at minimum -0.03?
Result block: no (0)

Query block: Would you say CGCTGGAG shows PBM 8-mer E-score at minimum -0.03?
Result block: no (0)

Query block: Would you say ATTTAAAG shows PBM 8-mer E-score at minimum -0.03?
Result block: yes (1)

Query block: Would you say GAAATTTC shows PBM 8-mer E-score at minimum -0.03?
Result block: yes (1)

Query block: Would you say ACCACCCC shows PBM 8-mer E-score at minimum -0.03?
Result block: yes (1)

Query block: Would you say ACATGTAT shows PBM 8-mer E-score at minimum -0.03?
Result block: yes (1)

Query block: Would you say CACACCCG shows PBM 8-mer E-score at minimum -0.03?
Result block: no (0)

Query block: Would you say CGTACGAA shows PBM 8-mer E-score at minimum -0.03?
Result block: yes (1)

Query block: Would you say CTCAACTC shows PBM 8-mer E-score at minimum -0.03?
Result block: yes (1)

Query block: Would you say AACGGTCC shows PBM 8-mer E-score at minimum -0.03?
Result block: no (0)

Query block: Would you say GGCTTGTA shows PBM 8-mer E-score at minimum -0.03?
Result block: yes (1)

Query block: Would you say AGAGGGCT shows PBM 8-mer E-score at minimum -0.03?
Result block: yes (1)

Query block: Would you say ACAAGTGT shows PBM 8-mer E-score at minimum -0.03?
Result block: yes (1)

Query block: Would you say ATTTAAAC shows PBM 8-mer E-score at minimum -0.03?
Result block: yes (1)

Query block: Would you say GGATTGCC shows PBM 8-mer E-score at minimum -0.03?
Result block: no (0)

Query block: Would you say AAGGTATG shows PBM 8-mer E-score at minimum -0.03?
Result block: yes (1)

Query block: Would you say GACTAGAA shows PBM 8-mer E-score at minimum -0.03?
Result block: yes (1)

Query block: Would you say TGCATGCA shows PBM 8-mer E-score at minimum -0.03?
Result block: yes (1)

Query block: Would you say GGTTCAAC shows PBM 8-mer E-score at minimum -0.03?
Result block: no (0)

Query block: Would you say CATATTTA shows PBM 8-mer E-score at minimum -0.03?
Result block: yes (1)

Query block: Would you say AGTGCAAA shows PBM 8-mer E-score at minimum -0.03?
Result block: no (0)

Query block: Would you say AATACCTA shows PBM 8-mer E-score at minimum -0.03?
Result block: yes (1)

Query block: Would you say CCGTTACA shows PBM 8-mer E-score at minimum -0.03?
Result block: yes (1)

Query block: Would you say AGATGTAT shows PBM 8-mer E-score at minimum -0.03?
Result block: yes (1)

Query block: Would you say GACTCTAC shows PBM 8-mer E-score at minimum -0.03?
Result block: no (0)

Query block: Would you say TCCCCCAA shows PBM 8-mer E-score at minimum -0.03?
Result block: no (0)

Query block: Would you say GACAATAA shows PBM 8-mer E-score at minimum -0.03?
Result block: yes (1)

Query block: Would you say GACAATAC shows PBM 8-mer E-score at minimum -0.03?
Result block: yes (1)

Query block: Would you say AAATGTAT shows PBM 8-mer E-score at minimum -0.03?
Result block: yes (1)

Query block: Would you say AGCATGCA shows PBM 8-mer E-score at minimum -0.03?
Result block: yes (1)

Query block: Would you say TACAAGAA shows PBM 8-mer E-score at minimum -0.03?
Result block: yes (1)

Query block: Would you say ATAGCATA shows PBM 8-mer E-score at minimum -0.03?
Result block: yes (1)

Query block: Would you say CCCCCAGC shows PBM 8-mer E-score at minimum -0.03?
Result block: no (0)

Query block: Would you say CGCCCACC shows PBM 8-mer E-score at minimum -0.03?
Result block: yes (1)

Query block: Would you say AACAGGAA shows PBM 8-mer E-score at minimum -0.03?
Result block: no (0)

Query block: Would you say GATATTAA shows PBM 8-mer E-score at minimum -0.03?
Result block: yes (1)

Query block: Would you say CTTCTACA shows PBM 8-mer E-score at minimum -0.03?
Result block: yes (1)

Query block: Would you say CATACCTA shows PBM 8-mer E-score at minimum -0.03?
Result block: yes (1)

Query block: Would you say AGACCGAG shows PBM 8-mer E-score at minimum -0.03?
Result block: no (0)

Query block: Would you say ATTCAGAC shows PBM 8-mer E-score at minimum -0.03?
Result block: no (0)

Query block: Would you say CTAAGCTA shows PBM 8-mer E-score at minimum -0.03?
Result block: no (0)

Query block: Would you say CAAGCTGA shows PBM 8-mer E-score at minimum -0.03?
Result block: yes (1)

Query block: Would you say ACCATATA shows PBM 8-mer E-score at minimum -0.03?
Result block: yes (1)

Query block: Would you say CCACAGTA shows PBM 8-mer E-score at minimum -0.03?
Result block: yes (1)

Query block: Would you say CCCACCCG shows PBM 8-mer E-score at minimum -0.03?
Result block: yes (1)

Query block: Would you say CACACACC shows PBM 8-mer E-score at minimum -0.03?
Result block: yes (1)

Query block: Would you say AACAATAA shows PBM 8-mer E-score at minimum -0.03?
Result block: yes (1)

Query block: Would you say CGGTGATC shows PBM 8-mer E-score at minimum -0.03?
Result block: no (0)
